Molecular target: T1, RBFOX1 RRM (Homo sapiens, UniProt Q9NWB1 109-208)
T1 sequence: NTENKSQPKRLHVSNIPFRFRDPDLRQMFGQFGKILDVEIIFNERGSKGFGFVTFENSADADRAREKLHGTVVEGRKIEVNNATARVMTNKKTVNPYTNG
Assay: EMSA; HiTS-Eq, 1 nM pool, 10 min; buffer printed only for the single-RNA assays: 10 mM Tris pH 7.5, 150 mM NaCl, 3.4 mM EDTA, 0.001% NP-40, 30 C
Conditions: tags: His6 N-terminal (pET28a); label: 5' 32P
Over roughly 16,000 sequences, “ka relative to ugcaugu” has its median near 0.0091; the highest 2% begin near 0.032. The full list was thinned out, with the highest values kept by preference.
measuredParameter: binding signal

Use the examples below as a reference point.
binder	binding signal
GCCAUGU (DNA:RNA) RNA: GGGAGACCGGAAUUCAGAUUGUCCGCCAUGUUUAAAUCCCGUCGUAGCCACCA DNA 1: CAATCTGAATTCCGGTCTCCC DNA 2: TGGTGGCTACGACGGGATT	0.0117 KA relative to UGCAUGU
GAGUGAG (DNA:RNA) RNA: GGGAGACCGGAAUUCAGAUUGUCCGAGUGAGUUAAAUCCCGUCGUAGCCACCA DNA 1: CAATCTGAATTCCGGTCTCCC DNA 2: TGGTGGCTACGACGGGATT	0.0102 KA relative to UGCAUGU
ACGCAUG (DNA:RNA) RNA: GGGAGACCGGAAUUCAGAUUGUCCACGCAUGUUAAAUCCCGUCGUAGCCACCA DNA 1: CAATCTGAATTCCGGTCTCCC DNA 2: TGGTGGCTACGACGGGATT	0.697 KA relative to UGCAUGU

Now for the binder whose binding signal we want.
Exam item: Consider the binder shown here: CUGCAGA (DNA:RNA) RNA: GGGAGACCGGAAUUCAGAUUGUCCCUGCAGAUUAAAUCCCGUCGUAGCCACCA DNA 1: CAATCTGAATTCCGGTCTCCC DNA 2: TGGTGGCTACGACGGGATT What is its recorded binding signal?
Marked response: 0.0168 KA relative to UGCAUGU
